Would you kindly list phytotoxicity rating AMATA for each of these compounds?
system: Amaranthus tuberculatus; experiment: Post-emergence herbicidal evaluation, AMATA; assay type: in vivo; conditions: 0.200 kg/ha, three weeks after treatment

| compound | system.name | obs.value |
| --- | --- | --- |
| CC1=CC(N(C(=O)COc2nc3ccccc3o2)C(C)C)=CC(C)(C)C1 | Amaranthus tuberculatus | 4 (4 - Injury) |

I would be grateful if you could provide phytotoxicity rating AMATA for each of the following entries.
1. CCN(C(=O)COc1nc2ccccc2o1)C1=CC(C)(C)CC(C)=C1
2. CC1=CC(N(C)C(=O)COc2nnc(C(F)(F)C(F)(F)F)s2)=CC(C)(C)C1
3. CCc1nnc(OCC(=O)N(C2=CC(C)(C)CC(C)=C2)C(C)C)s1
4. CC1=CC(N(C)C(=O)COc2nnc(C(F)(F)F)s2)=CC(C)(C)C1

6 (6 - Herbicidal effect)
3 (3 - Moderate effect)
3 (3 - Moderate effect)
0 (0 - No effect)

###

Would you kindly list phytotoxicity rating SETVI for each of these molecules?
test system: Setaria viridis; test: Post-emergence herbicidal evaluation, SETVI; conditions: 0.400 kg/ha, three weeks after treatment

Examples from the recorded data:
| molecule | obs.value |
| --- | --- |
| CC1=CC(N(C)C(=O)COc2nnc(C(F)(F)C(F)(F)F)s2)=CC(C)(C)C1 [Example 7] | 0 (0 - No effect) |
| CCN(C(=O)COc1nnc(C(F)(F)F)s1)C1=CC(C)(C)CC(C)=C1 [Example 1] | 3 (3 - Moderate effect) |
| CCN(C(=O)COc1nnc(C(F)(F)C(F)(F)F)s1)C1=CC(C)(C)CC(C)=C1 [Example 8] | 0 (0 - No effect) |
| CC1=CC(N(C)C(=O)COc2nnc(C(F)(F)F)s2)=CC(C)(C)C1 [Example 3] | 0 (0 - No effect) |
| CCc1nnc(OCC(=O)N(C)C2=CC(C)(C)CC(C)=C2)s1 [Example 5] | 0 (0 - No effect) |

I would be grateful if you could provide phytotoxicity rating SETVI for each of the following entries.
1. CCc1nnc(OCC(=O)N(C2=CC(C)(C)CC(C)=C2)C(C)C)s1 [Example 11]
2. CC1=CC(N(C(=O)COc2nnc(C(F)(F)F)s2)C(C)C)=CC(C)(C)C1 [Example 4]
3. CCc1nnc(OCC(=O)N(CC)C2=CC(C)(C)CC(C)=C2)s1 [Example 6]

1: 0 (0 - No effect); 2: 5 (5 - Definite injury); 3: 0 (0 - No effect)

I would be grateful if you could provide phytotoxicity rating SETVI for each of the following entries.
1. CC1=CC(N(C(=O)COc2nc3ccccc3o2)C(C)C)=CC(C)(C)C1 [Example 17]
2. CC1=CC(N(C)C(=O)COc2nc3ccccc3o2)=CC(C)(C)C1 [Example 16]
3. CCN(C(=O)COc1nc2ccccc2o1)C1=CC(C)(C)CC(C)=C1 [Example 2]

1: 6 (6 - Herbicidal effect); 2: 0 (0 - No effect); 3: 6 (6 - Herbicidal effect)

###

system: Setaria viridis; experiment: Pre-emergence herbicidal evaluation, SETVI; type: in vivo; settings: 0.200 kg/ha, three weeks after treatment
Would you kindly list phytotoxicity rating SETVI for each of these molecules?

Examples from the recorded data:
| molecule | phytotoxicity rating SETVI |
| --- | --- |
| CCN(C(=O)COc1nnc(C(F)(F)F)s1)C1=CC(C)(C)CC(C)=C1 [Example 1] | 7 (7 - Good herbicidal effect) |
| CCc1nnc(OCC(=O)N(CC)C2=CC(C)(C)CC(C)=C2)s1 [Example 6] | 5 (5 - Definite injury) |
| CCc1nnc(OCC(=O)N(C)C2=CC(C)(C)CC(C)=C2)s1 [Example 5] | 3 (3 - Moderate effect) |

I would be grateful if you could provide phytotoxicity rating SETVI for each of the following entries.
1. CC1=CC(N(C)C(=O)COc2nc3ccccc3o2)=CC(C)(C)C1 [Example 16]
2. CC1=CC(N(C)C(=O)COc2nnc(C(F)(F)F)s2)=CC(C)(C)C1 [Example 3]
3. CC1=CC(N(C(=O)COc2nnc(C(F)(F)F)s2)C(C)C)=CC(C)(C)C1 [Example 4]
4. CCc1nnc(OCC(=O)N(C2=CC(C)(C)CC(C)=C2)C(C)C)s1 [Example 11]
5. CC1=CC(N(C)C(=O)COc2nnc(C(F)(F)C(F)(F)F)s2)=CC(C)(C)C1 [Example 7]

1. 8 (8 - Approaching complete kill)
2. 8 (8 - Approaching complete kill)
3. 6 (6 - Herbicidal effect)
4. 8 (8 - Approaching complete kill)
5. 0 (0 - No effect)

I would be grateful if you could provide phytotoxicity rating SETVI for each of the following entries.
1. CCN(C(=O)COc1nnc(C(F)(F)C(F)(F)F)s1)C1=CC(C)(C)CC(C)=C1 [Example 8]
2. CCN(C(=O)COc1nc2ccccc2o1)C1=CC(C)(C)CC(C)=C1 [Example 2]
3. CC1=CC(N(C(=O)COc2nc3ccccc3o2)C(C)C)=CC(C)(C)C1 [Example 17]

1. 4 (4 - Injury)
2. 4 (4 - Injury)
3. 5 (5 - Definite injury)

###

tested on: Alopecurus myosuroides; assay: Pre-emergence herbicidal evaluation, ALOMY; type: in vivo; settings: 0.400 kg/ha, three weeks after treatment
experimental.endpoint: phytotoxicity rating ALOMY

Examples from the recorded data:
| compound | obs.value |
| --- | --- |
| CCN(C(=O)COc1nc2ccccc2o1)C1=CC(C)(C)CC(C)=C1 | 6 (6 - Herbicidal effect) |
| CC1=CC(N(C)C(=O)COc2nc3ccccc3o2)=CC(C)(C)C1 | 8 (8 - Approaching complete kill) |
| CC1=CC(N(C(=O)COc2nc3ccccc3o2)C(C)C)=CC(C)(C)C1 | 6 (6 - Herbicidal effect) |
| CCN(C(=O)COc1nnc(C(F)(F)F)s1)C1=CC(C)(C)CC(C)=C1 | 9 (9 - Complete kill) |

Could you now look at the following molecule, please?
molecule CCN(C(=O)COc1nnc(C(F)(F)C(F)(F)F)s1)C1=CC(C)(C)CC(C)=C1 , phytotoxicity rating ALOMY observed: 6 (6 - Herbicidal effect)

###

test system: Alopecurus myosuroides; assay: Pre-emergence herbicidal evaluation, ALOMY; format: in vivo; details: 0.200 kg/ha, three weeks after treatment
experimental.endpoint: phytotoxicity rating ALOMY

Examples from the recorded data:
| compound | experimental.endpoint | obs.value |
| --- | --- | --- |
| CC1=CC(N(C(=O)COc2nnc(C(F)(F)F)s2)C(C)C)=CC(C)(C)C1 | phytotoxicity rating ALOMY | 7 (7 - Good herbicidal effect) |
| CCN(C(=O)COc1nnc(C(F)(F)C(F)(F)F)s1)C1=CC(C)(C)CC(C)=C1 | phytotoxicity rating ALOMY | 4 (4 - Injury) |
| CC1=CC(N(C)C(=O)COc2nnc(C(F)(F)F)s2)=CC(C)(C)C1 | phytotoxicity rating ALOMY | 8 (8 - Approaching complete kill) |
| CC1=CC(N(C(=O)COc2nc3ccccc3o2)C(C)C)=CC(C)(C)C1 | phytotoxicity rating ALOMY | 6 (6 - Herbicidal effect) |
| CCc1nnc(OCC(=O)N(C)C2=CC(C)(C)CC(C)=C2)s1 | phytotoxicity rating ALOMY | 8 (8 - Approaching complete kill) |
| CC1=CC(N(C)C(=O)COc2nc3ccccc3o2)=CC(C)(C)C1 | phytotoxicity rating ALOMY | 8 (8 - Approaching complete kill) |
| CCc1nnc(OCC(=O)N(C2=CC(C)(C)CC(C)=C2)C(C)C)s1 | phytotoxicity rating ALOMY | 8 (8 - Approaching complete kill) |
| CCc1nnc(OCC(=O)N(CC)C2=CC(C)(C)CC(C)=C2)s1 | phytotoxicity rating ALOMY | 5 (5 - Definite injury) |
| CCN(C(=O)COc1nnc(C(F)(F)F)s1)C1=CC(C)(C)CC(C)=C1 | phytotoxicity rating ALOMY | 3 (3 - Moderate effect) |
| CC1=CC(N(C)C(=O)COc2nnc(C(F)(F)C(F)(F)F)s2)=CC(C)(C)C1 | phytotoxicity rating ALOMY | 2 (2 - Slight effect) |

molecule CCN(C(=O)COc1nc2ccccc2o1)C1=CC(C)(C)CC(C)=C1 , phytotoxicity rating ALOMY observed: 5 (5 - Definite injury)

###

test system: Lolium perenne; assay: Pre-emergence herbicidal evaluation, LOLPE; assay type: in vivo; conditions: 0.800 kg/ha, three weeks after treatment
experimental.endpoint: phytotoxicity rating LOLPE

| compound | obs.value |
| --- | --- |
| CCc1nnc(OCC(=O)N(C)C2=CC(C)(C)CC(C)=C2)s1 | 7 (7 - Good herbicidal effect) |
| CCN(C(=O)COc1nc2ccccc2o1)C1=CC(C)(C)CC(C)=C1 | 9 (9 - Complete kill) |
| CC1=CC(N(C(=O)COc2nc3ccccc3o2)C(C)C)=CC(C)(C)C1 | 9 (9 - Complete kill) |
| CC1=CC(N(C(=O)COc2nnc(C(F)(F)F)s2)C(C)C)=CC(C)(C)C1 | 9 (9 - Complete kill) |

Could you now look at the following molecule, please?
// assay Lolium perenne, entry CCN(C(=O)COc1nnc(C(F)(F)C(F)(F)F)s1)C1=CC(C)(C)CC(C)=C1 , phytotoxicity rating LOLPE value = 6 (6 - Herbicidal effect)
